biological target: HLA-B*57:01; test: IEDB peptide-MHC binding, purified MHC/direct/fluorescence; filed as Kd, often an IC50 or EC50 that approximates it; bounds were set here for any values at or beyond the usual limits of such assays; details: source organism: Shigella sonnei Ss046
pKd: −log10 of the molar value.

sequence-string | target-entity | pKd
VLDMGDPVK | HLA-B*57:01 | ≤ 4.70

###

target: HLA-A*03:01; experiment: IEDB peptide-MHC binding, purified MHC/competitive/fluorescence; filed as Kd, often an IC50 or EC50 that approximates it; bounds were set here for any values at or beyond the usual limits of such assays; conditions: source organism: Campylobacter jejuni subsp. jejuni NCTC 11168 = ATCC 700819

sequence-string | Kd
LELAEITAE | ≥ 20 µM

###

target: HLA-A*02:03; assay: IEDB peptide-MHC binding, purified MHC/competitive/fluorescence; filed as Kd, often an IC50 or EC50 that approximates it; bounds were set here for any values at or beyond the usual limits of such assays; conditions: source organism: Vibrio cholerae 2740-80
pKd: −log10 of the molar value.

sequence-string | pKd
IFIRTIYYH | ≤ 4.70

###

biological target: HLA-A*03:01; experiment: IEDB peptide-MHC binding, purified MHC/direct/fluorescence; filed as Kd, often an IC50 or EC50 that approximates it; bounds were set here for any values at or beyond the usual limits of such assays; conditions: source organism: Clostridium botulinum
pKd: −log10 of the molar value.
metric: pKd

sequence-string | endpoint-result
RVYINVVVK | 6.62

###

molecular target: HLA-A*68:01; assay: IEDB peptide-MHC binding, purified MHC/competitive/radioactivity; filed as Kd, often an IC50 or EC50 that approximates it; bounds were set here for any values at or beyond the usual limits of such assays; settings: source organism: Vaccinia virus WR
pKd: −log10 of the molar value.
metric: pKd

sequence-string | metric | qualifier-sign | endpoint-result
AIDRQVSVK | pKd | = | 4.95
SSESLVYGIR | pKd | = | 6.32
VTFRERYSY | pKd | = | 6.97
KSNAKCIEY | pKd | ≤ | 4.61
RLQMAGVEVR | pKd | = | 6.04
KLGDKGSPYY | pKd | = | 5.29
LSTLNFNNLR | pKd | = | 7.92
KFAEESYTYY | pKd | = | 5.95
LIVSLCPTKK | pKd | = | 6.46
IISRTRLYDY | pKd | = | 5.36
LLDSIKMIY | pKd | = | 6.14
NISIISIRPR | pKd | = | 8.29
FIVPEFAKQY | pKd | = | 4.95
QILDNAAKY | pKd | ≤ | 4.11
QILMKTANNY | pKd | = | 5.30
RSTAIKVTK | pKd | = | 7.86
ELAELLEMK | pKd | = | 7.88
DAVRAFLLR | pKd | = | 9.08
NTPVSMTYLY | pKd | = | 6.38
RFVKFNDYRK | pKd | = | 7.29
MINYYNEMSR | pKd | = | 7.87

###

target: HLA-A*32:15; assay: IEDB peptide-MHC binding, purified MHC/competitive/fluorescence; filed as Kd, often an IC50 or EC50 that approximates it; bounds were set here for any values at or beyond the usual limits of such assays; conditions: source organism: Mycobacterium tuberculosis str. Haarlem
metric: Kd (nM)

sequence-string | unit-text | endpoint-result
YTPEQWWPF | nM | 38.2

Recorded values, source the Immune Epitope Database (IEDB).
